biological target: recombinant thioesterase TE1 (recombinant FASN-TE) (Homo sapiens); experiment: Recombinant thioesterase inhibition assay (TE1); type: biochemical; conditions: 10 μM compound; 30 min pre-incubation at 37° C.; 4-MUH substrate
Class true (1): inhibition at 10 µM at least 60%. Class false (0): inhibition at 10 µM below 60%.

>>> class("COc1cc(O)c2onc(-c3ccccc3)c2c1O")
"false (0)"
>>> class("CCOC(=O)c1n[nH]c2c1C(=O)C(SCC(=O)Nc1ccccc1)=CC2=O")
"false (0)"
>>> class("C=C1C=C(SCC)C(=O)c2c(C(=O)OCC)n[nH]c21")
"true (1)"
>>> class("O=C(Nc1ccccc1)c1n[nH]c2c1C(=O)C(SCCCCO)=CC2=O")
"true (1)"
>>> class("CCOC(=O)c1n[nH]c2c1C(=O)C(SCC(=O)NC)=CC2=O")
"false (0)"
>>> class("CCOC(=O)c1n[nH]c2c1C(=O)C(SCc1ccc(OC)cc1)=CC2=O")
"true (1)"
>>> class("CCOC(=O)c1n[nH]c2c1C(=O)C(SCc1ccco1)=CC2=O")
"true (1)"
>>> class("CNC(=O)CSC1=CC(=O)c2[nH]ncc2C1=O")
"true (1)"

----------
target: recombinant thioesterase TE2 (recombinant FASN-TE) (Homo sapiens, UniProt P49327); assay: Recombinant thioesterase inhibition assay (TE2); format: biochemical; conditions: 10 μM compound; 30 min pre-incubation at 37° C.; 4-MUH substrate
Sequence (P49327 2200-2511): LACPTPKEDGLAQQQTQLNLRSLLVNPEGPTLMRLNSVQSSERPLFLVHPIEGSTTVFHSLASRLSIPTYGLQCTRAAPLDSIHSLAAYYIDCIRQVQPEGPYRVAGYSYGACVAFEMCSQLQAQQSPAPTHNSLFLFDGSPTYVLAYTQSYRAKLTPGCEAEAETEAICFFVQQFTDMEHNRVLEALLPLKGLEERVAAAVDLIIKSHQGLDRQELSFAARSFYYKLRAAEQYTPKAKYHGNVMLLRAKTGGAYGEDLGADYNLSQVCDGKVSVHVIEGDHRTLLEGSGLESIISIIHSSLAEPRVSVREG
Listing of entries alongside the reported inhibition at 10 µM.
measurement.name: inhibition at 10 µM (%)

>>> assay_result("CCOC(=O)c1n[nH]c2c1C(=O)C(SCCCCO)=CC2=O")
91.7
>>> assay_result("CCOC(=O)c1n[nH]c2c1C(=O)C(SCC(=O)NC)=CC2=O")
92.2
>>> assay_result("CCOC(=O)c1n[nH]c2c1C(=O)C(Sc1cccc(OC)c1)=CC2=O")
98
>>> assay_result("CCOC(=O)c1n[nH]c2c1C(=O)C(SCCOCCOC)=CC2=O")
94.8
>>> assay_result("O=C(Nc1ccccc1)c1n[nH]c2c1C(=O)C(SCc1ccc(C(F)(F)F)cc1)=CC2=O")
100

----------
biological target: recombinant thioesterase TE1 (recombinant FASN-TE) (Homo sapiens, UniProt P49327); experiment: Recombinant thioesterase inhibition assay (TE1); details: recombinant thioesterase; approximate; read-out: approx, IC50 TE1
pIC50: −log10 of the molar value.
measurement.name: pIC50

>>> assay_result("C=C1C=C(S)C(=O)c2c(C(=O)OCC)n[nH]c21")
"~5.41"
>>> assay_result("C=C1C=C(SCC)C(=O)c2c(C(=O)OCC)n[nH]c21")
"~5.63"
>>> assay_result("CCOC(=O)c1n[nH]c2c1C(=O)C(SCC(=O)OC)=CC2=O")
"~5.56"
>>> assay_result("CNC(=O)CSC1=CC(=O)c2[nH]ncc2C1=O")
"~5.99"

----------
System: DU-145 prostate tumor cells
Assay: MTS cell survival assay, DU-145
Format: cell-based
Details: Homo sapiens, doses 1-50 μM, time point not given
Procedure: Prostate tumor (PC3, DU145) and normal fibroblast controls (FS-4) cells were individually seeded in 96-well plates at a density of 4,000 cells per well. […] Cell viability of each cell line was then determined after 24, 48 and 72 hours of treatment with each compound by MTS assay (Roche). […] Viability is determined by colorimetric readout at 492 nm and determined relative to vehicle only treated cells. The IC50 for each drug, at each time point, will be determined by curve fitting.
pIC50: −log10 of the molar value.
measurement.name: pIC50

>>> assay_result("C=C1C=C(S)C(=O)c2c(C(=O)OCC)n[nH]c21")
4.81
>>> assay_result("C=C1C=C(SCC)C(=O)c2c(C(=O)OCC)n[nH]c21")
4.40
